Target: Recombinant human Menin protein (2-610) / MLL polypeptide binding (Homo sapiens (Human))
Assay: Menin and MLL protein binding at a molecular level (fluorescence polarization method)
Settings: inhibition of Menin / MLL polypeptide binding

compound	relation operator	IC50 / nM
CCN(C(=O)c1cc(F)ccc1Oc1nncnc1N1CC2(CCN(CC3CCN(C(=O)C4(O)CC4)CC3)CC2)C1)C(C)C	=	5.1
CCN(C(=O)c1cc(F)ccc1Oc1nncnc1N1CC2(CCN(CC3CCN(C(=O)C4(OC)CC4)CC3)CC2)C1)C(C)C	=	34.6
COc1cc(N2CCC(CN3CCC4(CC3)CN(c3ncnnc3Oc3ccc(F)cc3C(=O)N3CCC[C@H]3C)C4)CC2)nnc1OC	=	1.9
COc1cc(N2CCC(CN3CCC4(CC3)CN(c3ncnnc3Oc3ccc(F)c5c3cnn5C(C)C)C4)CC2)nnc1OC	>	1000
CCN(C(=O)c1cc(F)ccc1Oc1nncnc1N1CC2(CCN(Cc3ccc4c(cc(C#N)n4CC(O)C(N)=O)c3C)CC2)C1)C(C)C (centres unmarked)	=	5.3
C=Cc1ccc(N2CCC(CN3CCC4(CC3)CN(c3ncnnc3Oc3ccc(F)cc3C(=O)N(CC)C(C)C)C4)CC2)nn1	=	2
C=CC(=O)Nc1cccc(N2CCC(CN3CCC4(CC3)CN(c3ncnnc3Oc3ccc(F)cc3C(=O)N(CC)C(C)C)C4)CC2)c1	=	4
CCN(C(=O)c1cc(F)ccc1Oc1nncnc1N1CC2(CCN(CC3CCN(c4cc(C#N)cnn4)CC3)CC2)C1)C(C)C	=	4.7
CCN(C(=O)c1cc(F)ccc1Oc1nncnc1N1CC2(CCN(Cc3ccc4oc(C(=O)NC)c(C)c4c3)CC2)C1)C(C)C	=	955
CCN(C(=O)c1cc(F)ccc1Oc1nncnc1N1CC2(CCN(CC3CCN(c4ccc(=O)n(C)n4)CC3)CC2)C1)C(C)C	=	54.9
CCN(C(=O)c1cc(F)ccc1Oc1nncnc1N1CC2(CCN(CC3CCN(c4cc(C(F)(F)F)cnn4)CC3)CC2)C1)C(C)C	=	3.9
CCN(C(=O)c1cc(F)ccc1Oc1nncnc1N1CC2(CCN(CC3CCN(c4cc(C)cnn4)CC3)CC2)C1)C(C)C	=	4.2
Cc1c(CN2CCC3(CC2)CN(c2ncnnc2Oc2ccc(F)cc2)C3)ccc2c1cc(C#N)n2CCO	=	292
CCN(C(=O)c1cc(F)ccc1Oc1nncnc1N1CC2(CCN(Cc3ccc4nccn4c3)CC2)C1)C(C)C	>	1000

====

Test system: MV-4-11 cells (human acute myelogenous leukemia cell line carrying MLL-AF4 mutation)
Test: Cell proliferation assay, MV-4-11 (CellTiter-Glo)
Format: cell-based
Settings: Homo sapiens, MV4-11, 72 h, MV-4-11 cells, 3 days treatment, CellTiter-Glo; read-out: GI50
observed property: GI50

compound	reported measurement
CCN(C(=O)c1cc(F)ccc1Oc1nncnc1N1CC2(CCN(Cc3ccc4oc(C)nc4c3)CC2)C1)C(C)C [Compound 67]	309 nM
CCN(C(=O)c1cc(F)ccc1Oc1nncnc1N1CC2(CCN(CC3CCN(c4cnccn4)CC3)CC2)C1)C(C)C [Compound 40]	23 nM
CCN(C(=O)c1cc(F)ccc1Oc1nncnc1N1CC2(CCN(Cc3ccc4nc(C)ncc4c3)CC2)C1)C(C)C [Compound 71]	1280 nM
CCN(C(=O)c1cc(F)ccc1Oc1nncnc1N1CC2(CCN(CC3CCC(n4ccccc4=O)CC3)CC2)C1)C(C)C (stereo not shown) [Compound 122]	119 nM

====

Catalogue of pIC50 values
Molecular target: Recombinant human Menin protein (2-610) / MLL polypeptide binding (Homo sapiens (Human))
Assay: Menin and MLL protein binding at a molecular level (fluorescence polarization method)
Conditions: inhibition of Menin / MLL polypeptide binding
Protocol: Example 3: Determination of the Activity of the Compounds of the Present Invention on Menin and MLL Protein Binding at a Molecular Level (Fluorescence Polarization Method) 1. Reagents, Materials and Instruments: […] The vertical polarization S value and the horizontal polarization P value (excitation wavelength was 480 nm, and emission wavelength was 535 nm) were measured with Envision. […]
pIC50: −log10 of the molar value.
observed property: pIC50

molecule	relation operator	reported measurement
CCN(C(=O)c1cc(F)ccc1Oc1nncnc1N1CC2(CCN(CC3CCN(C[C@@H](O)CC#N)CC3)CC2)C1)C(C)C [Compound 39]	=	7.17
CCN(C(=O)c1cc(F)ccc1Oc1nncnc1N1CC2(CCN(CC3CCN(c4cc(OC)ccn4)CC3)CC2)C1)C(C)C [Compound 113]	=	8.72
CCN(C(=O)c1cc(F)ccc1Oc1nncnc1N1CC2(CCN(CC3CCC(O)(c4ccccn4)CC3)CC2)C1)C(C)C (stereo not shown) [Compound 125]	<	6.70
CCN(C(=O)c1cc(F)ccc1Oc1nncnc1N1CC2(CCN(Cc3ccc4[nH]c(=O)ccc4c3)CC2)C1)C(C)C [Compound 72]	=	7.55
CCN(C(=O)c1cc(F)ccc1Oc1nncnc1N1CC2(CCN(Cc3ccc4[nH]ccc4c3)CC2)C1)C(C)C [Compound 62]	=	6.49
CCN(C(=O)c1cc(F)ccc1Oc1nncnc1N1CC2(CCN(CC3CCN(C(=O)N(C)c4ccccn4)CC3)CC2)C1)C(C)C [Compound 25]	=	6.79
CCN(C(=O)c1cc(F)ccc1Oc1nncnc1N1CC2(CCN(Cc3ccc4oc(C(=O)NC)cc4c3)CC2)C1)C(C)C [Compound 74]	=	6.38
CCN(C(=O)c1cc(F)ccc1Oc1nncnc1N1CC2(CCN(CC3CCN(c4cc5c(nn4)OCCO5)CC3)CC2)C1)C(C)C [Compound 108]	=	7.67
CCN(C(=O)c1cc(F)ccc1Oc1nncnc1N1CC2(CCN(Cc3ccc4c(cc(C(=O)NC)n4CCO)c3C)CC2)C1)C(C)C [Compound 152]	=	6.45
CCN(C(=O)c1cc(F)ccc1Oc1nncnc1N1CC2(CCN(Cc3ccc4[nH]c(C(=O)NC)cc4c3)CC2)C1)C(C)C [Compound 65]	=	7.08
CCN(C(=O)c1cc(F)ccc1Oc1nncnc1N1CC(C2(NCc3ccc4[nH]c(C#N)cc4c3C)CC2)C1)C(C)C [Compound 127]	=	7.61
COc1cc(N2CCC(CN3CCC4(CC3)CN(c3ncnnc3Oc3ccc(F)cc3-c3ccnn3C)C4)CC2)nnc1OC [Compound 92]	=	7.96
CCN(C(=O)c1cc(F)ccc1Oc1nncnc1N1CC2(CCN(CC3CCN(C(=O)C4(C(F)(F)F)CC4)CC3)CC2)C1)C(C)C [Compound 2]	=	7.52

====

Tested on: MV-4-11 cells (human acute myelogenous leukemia cell line carrying MLL-AF4 mutation)
Test: Cell proliferation assay, MV-4-11 (CellTiter-Glo)
Type: cell-based
Details: Homo sapiens, MV4-11, 72 h
Structures can show the parent of a compound that is named as a salt.
observed property: GI50 (nM)

molecule	observed property	reported measurement
CCN(C(=O)c1cc(F)ccc1Oc1nncnc1N1CC2(CCC(CN3CCN(c4ccccn4)CC3)CC2)C1)C(C)C	GI50	292
COc1cc(N2CCC(CN3CCC4(CC3)CN(c3ncnnc3Oc3ccc(F)cc3C(=O)NC(C)C)C4)CC2)nnc1OC	GI50	92
CCN(C(=O)c1cc(F)ccc1Oc1nncnc1N1CC2(CCN(CC3CCN(c4ccc(C(N)=O)cn4)CC3)CC2)C1)C(C)C [Compound 149, formate]	GI50	6

====

Target: Recombinant human Menin protein (2-610) / MLL polypeptide binding (Homo sapiens (Human), UniProt O00255)
Sequence (O00255 2-610): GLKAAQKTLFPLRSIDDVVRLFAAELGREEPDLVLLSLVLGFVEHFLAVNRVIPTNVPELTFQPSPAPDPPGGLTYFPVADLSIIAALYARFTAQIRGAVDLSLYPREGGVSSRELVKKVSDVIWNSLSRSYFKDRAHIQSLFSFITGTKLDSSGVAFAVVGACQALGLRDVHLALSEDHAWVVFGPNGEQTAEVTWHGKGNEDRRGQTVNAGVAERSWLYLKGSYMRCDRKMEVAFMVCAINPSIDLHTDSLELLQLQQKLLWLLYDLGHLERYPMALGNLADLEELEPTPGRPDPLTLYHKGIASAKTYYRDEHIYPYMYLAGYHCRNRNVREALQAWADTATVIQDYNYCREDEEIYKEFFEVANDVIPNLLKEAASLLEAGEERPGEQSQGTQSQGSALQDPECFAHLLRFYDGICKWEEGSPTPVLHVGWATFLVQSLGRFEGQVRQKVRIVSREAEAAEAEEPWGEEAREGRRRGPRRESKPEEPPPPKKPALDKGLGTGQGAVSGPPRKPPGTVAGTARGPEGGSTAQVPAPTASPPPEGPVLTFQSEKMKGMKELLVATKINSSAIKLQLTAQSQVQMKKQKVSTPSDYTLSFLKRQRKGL
Assay: Menin and MLL protein binding at a molecular level (fluorescence polarization method)
Conditions: inhibition of Menin / MLL polypeptide binding
Kindly apply the following: true (1) if IC50 is less than 30 nM, false (0) in every other case.

compound	classification
CCN(C(=O)c1cc(F)ccc1Oc1nncnc1N1CC2(CCN(CC3CCN(c4ccnc(C(C)(C)O)c4)CC3)CC2)C1)C(C)C [Compound 120]	true (1)
CCN(C(=O)c1cc(F)ccc1Oc1nncnc1N1CC2(CCN(CC3CCN(C(=O)c4cnn5cccnc45)CC3)CC2)C1)C(C)C [Compound 169]	false (0)
CCN(C(=O)c1cc(F)ccc1Oc1nncnc1N1CC2(CCN(CC3CCN(c4cnc(Cl)nn4)CC3)CC2)C1)C(C)C [Compound 41]	true (1)
Cc1nc(-c2cc(F)ccc2Oc2nncnc2N2CC3(CCN(Cc4ccc5c(cc(C#N)n5CCO)c4C)CC3)C2)n(C(C)C)n1 [Compound 161]	true (1)
CCN(C(=O)c1cc(F)ccc1Oc1nncnc1N1CC2(CCN(CC3CCN(c4cccc(C(C)(C)O)n4)CC3)CC2)C1)C(C)C [Compound 121]	true (1)
CCN(C(=O)c1cc(F)ccc1Oc1nncnc1N1CC2(CCN(CC3CCN(c4ccc(Cl)nn4)CC3)CC2)C1)C(C)C [Compound 46]	true (1)
CCN(C(=O)c1cc(F)ccc1Oc1nncnc1N1CC2(CCN(CC3CC=C(c4ccccn4)CC3)CC2)C1)C(C)C (stereo not shown) [Compound 123]	false (0)
CCN(C(=O)c1cc(F)ccc1Oc1nncnc1N1CC2(CCN(Cc3ccc4c(cc(C(N)=O)n4CCO)c3C)CC2)C1)C(C)C [Compound 158]	false (0)
CCN(C(=O)c1cc(F)ccc1Oc1nncnc1N1CC2(CCN(CC3CCN(C(=O)CNC4CC4)CC3)CC2)C1)C(C)C [Compound 7]	false (0)
CCN(C(=O)c1cc(F)ccc1Oc1nncnc1N1CC2(CCN(CC3CCN(c4cc(OC)c(OC)nn4)CC3)C2)C1)C(C)C [Compound 93]	true (1)
CCN(C(=O)c1cc(F)ccc1Oc1nncnc1N1CC2(CCN(CC3CCN(c4ccc(OC)cn4)CC3)CC2)C1)C(C)C [Compound 112]	true (1)
CCN(C(=O)c1cc(F)ccc1Oc1nncnc1N1CC2(CCN(CC3CCN(C(=O)C4CC(F)(F)C4)CC3)CC2)C1)C(C)C [Compound 6]	true (1)
